# ASSAYED SYSTEM: glucagon receptor (Homo sapiens, UniProt P47871)
# Construct: expressed in transfected cells; host or cells: HEK293
# Sequence (P47871 26-477): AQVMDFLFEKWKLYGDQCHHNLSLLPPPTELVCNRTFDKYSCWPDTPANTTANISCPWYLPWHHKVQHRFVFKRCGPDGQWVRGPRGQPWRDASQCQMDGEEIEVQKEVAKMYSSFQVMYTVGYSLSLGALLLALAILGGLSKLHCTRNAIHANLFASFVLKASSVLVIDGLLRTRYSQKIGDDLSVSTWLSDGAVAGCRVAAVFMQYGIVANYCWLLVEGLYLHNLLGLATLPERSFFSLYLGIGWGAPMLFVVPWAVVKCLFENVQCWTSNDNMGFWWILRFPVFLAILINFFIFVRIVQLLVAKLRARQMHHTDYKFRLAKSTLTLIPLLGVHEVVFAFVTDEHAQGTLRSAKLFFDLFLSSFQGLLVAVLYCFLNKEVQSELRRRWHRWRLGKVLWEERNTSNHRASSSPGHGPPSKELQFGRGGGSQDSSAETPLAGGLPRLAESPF
# TEST METHOD NOTES: cAMP induction, firefly luciferase reporter assay in HEK293 cells co-transfected with glucagon receptor
# Assay type: cell-based
# EXPERIMENTAL CONDITIONS: Table 3; relative to the activity of the native hormone
MEASURE NAME: GR relative activity (%)

SUBSTANCE	ASSAYED SYSTEM	RESULT UNITS	ASSAY VALUE
Example 8 peptide: Tyr1, AIB2, Glu16/Lys20 lactam, Leu-Ala-Gly 27-29, GPSSGAPPPS 30-39, or a peptide lacking a lactam [mt-226]	glucagon receptor (Homo sapiens, UniProt P47871)	%	1.56

(1) Example 8 peptide: Tyr1, AIB2, Glu16/Lys20 lactam, Leu-Ala-Gly 27-29, GPSSGAPPPS 30-39, or a peptide lacking a lactam [mt-220]
(2) Example 8 peptide: Tyr1, AIB2, Glu16/Lys20 lactam, Leu-Ala-Gly 27-29, GPSSGAPPPS 30-39, or a peptide lacking a lactam [mt-217]
(Q) I'm curious, which of these has a smaller GR relative activity number: 1 or 2 ? Could you answer with the label of the item you picked?
(A) 2
(2: 0.82%, 1: 1.18%)
